Quick reference for tmax among some molecules
- assay summary: Multi-component pharmacokinetics in rat plasma after oral administration of RB, RPA or RB-RPA extracts (UPLC-HRMS, non-compartmental analysis)
- Type: in vivo, Sprague-Dawley rats
- details: rat plasma, oral RB single extract 45 g-herb/kg, mean ± SD, n = 7
Write the number in min without appending the unit.

Known tmax results, listed for orientation:
molecule | tmax, min
CC1(C)CC[C@]23CO[C@@]4(C=C[C@@H]5[C@@]6(C)CC[C@H](O)[C@@](C)(CO)[C@@H]6CC[C@@]5(C)[C@]4(C)C[C@H]2O)[C@@H]3C1 [Saikogenin G] | 45
C[C@@H]1O[C@@H](O[C@@H]2[C@H](O)[C@@H](O)[C@H](O[C@H]3CC[C@@]4(C)C(CC[C@]5(C)C4C=C[C@]46OC[C@@]7(CCC(C)(C)CC74)[C@@H](O)C[C@]65C)C3(C)C)O[C@@H]2CO[C@@H]2O[C@H](CO)[C@@H](O)[C@H](O)[C@H]2O)[C@H](O)[C@H](O)[C@H]1O (stereo partly shown) [Saikosaponin C] | 30

## Task What measured tmax goes with CC(=O)OC[C@H]1O[C@@H](O[C@H]2[C@@H](O)[C@@H](C)O[C@@H](O[C@H]3CC[C@@]4(C)[C@@H](CC[C@]5(C)[C@@H]4C=CC46OCC7(CCC(C)(C)C[C@H]74)[C@H](O)C[C@]65C)[C@]3(C)CO)[C@@H]2O)[C@H](O)[C@@H](O)[C@@H]1O (stereo partly shown) [Acetyl-saikosaponin D] ?
## Result 30

## Task What about this molecule? C[C@H]1O[C@@H](O[C@@H]2CC[C@@]3(C)[C@@H](CC[C@]4(C)[C@@H]3C=C[C@]35OC[C@@]6(CCC(C)(C)C[C@H]63)[C@@H](O)C[C@]54C)[C@@]2(C)CO)[C@H](O)[C@@H](O)[C@H]1O [Prosaikogenin G]
## Result 47.4
